- Tested on: HCC1569
- assay-protocol: cell number relative to DMSO (% of DMSO); higher = more cells (less growth inhibition / toxicity)
- conditions: concentration: 10 µM; 24 h
Reported cell number values for a set of molecules

Study these solved cases before continuing.
{"columns": ["molecule", "measurement"],
 "data": [
  ["C[N+](C)(C)CCOC(=O)CCC(=O)OCC[N+](C)(C)C.[Cl-].[Cl-] [Succinylcholine chloride]", 100],
  ["CC12CCC(=O)C=C1CCC1C2C(O)CC2(C)C1CCC2(O)C(=O)CO (stereo unspecified) [Hydrocortisone]", 98.7],
  ["NC(=O)c1cccc(-c2cccc(OC(=O)NC3CCCCC3)c2)c1", 97.3],
  ["O=c1[nH]ccc2c(O)cccc12 [1,5-Isoquinolinediol]", 100],
  ["N[C@H](C(=O)O)c1cc(O)cc(O)c1 [(S)-3,5-Dihydroxyphenylglycine]", 101]
]}

Q: // query cell number value for entry CCc1nn(CCCN2CCN(c3cccc(Cl)c3)CC2)c(=O)n1CCOc1ccccc1 [Nefazodone]
A: 98.9

* * *

- Test system: TDF
- assay-protocol: cell number relative to DMSO (% of DMSO); higher = more cells (less growth inhibition / toxicity)
- conditions: concentration: 10 µM; 24 h
measured-metric: cell number
A bare number is all that is needed in reply.

Known results for molecules:
{"columns": ["molecule", "tgt", "measurement"],
 "data": [
  ["Cc1nc(C)c(C)nc1C [Tetramethylpyrazine]", "TDF", 108],
  ["CCCCOC(=O)NS(=O)(=O)c1sc(CC(C)C)cc1-c1ccc(Cn2c(CC)nc3c(C)cc(C)nc32)cc1", "TDF", 106],
  ["O=C(CCl)c1c[nH]c2ccccc12 [2-chloro-1-(1H-indol-3-yl)ethanone]", "TDF", 55]
]}

Next, consider the following molecule.
Q: If you can, please state the reported cell number value of `CN(C)[C@@H](CCOc1cccc2ccccc12)c1ccccc1.Cl` .
A: 92.4

* * *

- Tested on: TDF
- assay-protocol: H1.0 immunofluorescence intensity relative to DMSO (% of DMSO); higher = stronger H1.0 induction, active = 120 or more
- conditions: concentration: 10 µM; 24 h
Category | rule: reported H1.0 immunofluorescence intensity within range, see lo (below 90), mid (90 to below 100), hi (100 or more)

{"columns": ["compound", "tgt", "classification"],
 "data": [
  ["O=C1c2ccccc2-[n+]2ccc3c([nH]c4ccccc43)c21.[Cl-] [Fascaplysin, Synthetic]", "TDF", "hi"],
  ["CC1CN(S(=O)(=O)c2cccc3cnccc23)CCN1.Cl.Cl (stereo not given)", "TDF", "lo"],
  ["Nc1cccc(-c2cc3c(Oc4cccc(O)c4)ncnc3[nH]2)c1", "TDF", "hi"],
  ["NC(=O)c1ccc(N(C(N)=O)c2c(F)cccc2F)nc1-c1ccc(F)cc1F", "TDF", "mid"],
  ["Cc1cc(Nc2ncc3cc(-c4c(Cl)cccc4Cl)c(=O)n(C)c3n2)ccc1F", "TDF", "hi"]
]}

Q: Entry CCCCOc1cc(CC2CNC(=O)N2)ccc1OC (stereo not given) belongs to which category?
A: lo

Q: Tag the class for `COc1cc(Nc2c(C#N)cnc3cc(OCCCN4CCN(C)CC4)c(OC)cc23)c(Cl)cc1Cl`
A: hi

Q: Which bin, given its H1.0 immunofluorescence intensity, does Nc1nccc2c1ncn2C1OC(CO)C(O)C1O (stereo not given) occupy?
A: mid

Q: Which bin should I file CC1(C)CCC=[N+]1[O-] [5,5-Dimethyl-1-pyrroline-N-oxide] under?
A: mid

Q: Returns: class label. Input: `O=C(O)CN(CCN(CC(=O)O)CC(=O)O)CCN(CC(=O)O)CC(=O)O`
A: mid

Q: Quick check: band for `O=C1NCCN1CCN1CCC(c2cn(-c3ccc(F)cc3)c3ccc(Cl)cc23)CC1`
A: hi

Q: Into which bin does this compound go? `CCCCCCCCCCCCCCC(C(=O)O)=C(C)C(=O)O`
A: hi

* * *

- Test system: TDF
- assay-protocol: H1.0 immunofluorescence intensity relative to DMSO (% of DMSO); higher = stronger H1.0 induction, active = 120 or more
- conditions: concentration: 10 µM; 24 h
measured-metric: H1.0 immunofluorescence intensity

{"columns": ["compound", "tgt", "H1.0 immunofluorescence intensity"],
 "data": [
  ["CCCOc1ccc(C=C2SC(=O)NC2=O)cc1 [PIM1/2 Kinase Inhibitor VI]", "TDF", "103 (inactive)"],
  ["COC(=O)Nc1nc2ccc(Sc3ccccc3)cc2[nH]1 [Fenbendazole]", "TDF", "99.2 (inactive)"],
  ["COc1cc2c(CCNC(C)=O)c[nH]c2cc1Cl [6-Chloromelatonin]", "TDF", "94.8 (inactive)"]
]}

Q: Given Cc1ccc(S(=O)(=O)NC(Cc2ccccc2)C(=O)CCl)cc1 [N-p-Tosyl-L-phenylalanine chloromethyl ketone] , state its recorded H1.0 immunofluorescence intensity.
A: 102 (inactive)

Q: Given COc1cc(C(=O)OC2CC3CCC2(C)C3(C)C)ccc1O (stereo not drawn) [Tschimganine] , state its recorded H1.0 immunofluorescence intensity.
A: 99.6 (inactive)

Q: Dear colleague, I am looking for the recorded H1.0 immunofluorescence intensity of the following compound: `O=C(Nc1ccc(Oc2ccnc3[nH]ccc23)c(F)c1)c1cccn(-c2ccc(F)cc2)c1=O`
A: 95.1 (inactive)

Q: Please look up its H1.0 immunofluorescence intensity: CN(C)C(=O)Nc1cccc(-c2ccc(N(C)C)cc2)c1 [3-(4'-(dimethylamino)-[1,1'-biphenyl]-3-yl)-1,1-dimethylurea]
A: 97.6 (inactive)

Q: Given the compound CCC(=C(CC)c1ccc(O)cc1)c1ccc(O)cc1 [Diethylstilbestrol] , what is its reported H1.0 immunofluorescence intensity?
A: 99 (inactive)

Q: Can you share its H1.0 immunofluorescence intensity? I mean this compound: CC(C)CCN1c2nc(Nc3cc(F)c(O)c(F)c3)ncc2N(C)C(=O)C1C (stereo not drawn)
A: 131 (active)

Q: Returns the measured H1.0 immunofluorescence intensity for the input compound. Input: CC1(COc2ccc(CC3SC(=O)NC3=O)cc2)CCCCC1 (stereo not drawn) [Ciglitizone]
A: 96.5 (inactive)

Q: # input compound: O=C([O-])Cc1ccccc1Nc1c(Cl)cccc1Cl.[Na+] [Diclofenac sodium] ; wanted: its H1.0 immunofluorescence intensity
A: 99.1 (inactive)

* * *

- Tested on: TDF
- assay-protocol: H1.0 immunofluorescence intensity relative to DMSO (% of DMSO); higher = stronger H1.0 induction, active = 120 or more
- conditions: concentration: 10 µM; 24 h
measured-metric: H1.0 immunofluorescence intensity
# output: bare number, no unit

{"columns": ["molecule", "H1.0 immunofluorescence intensity"],
 "data": [
  ["O=C1Nc2ccccc2C1=C1Nc2ccccc2C1=O [Indirubin]", 105]
]}

Q: Reported H1.0 immunofluorescence intensity, molecule Cc1nccn1CC1CCc2c(c3ccccc3n2C)C1=O (stereo not given) [Ondansetron] : ____
A: 95.4

Q: Any idea what H1.0 immunofluorescence intensity was measured for Cl.Cl.Fc1ccc(C(c2ccc(F)cc2)N2CCN(CC=Cc3ccccc3)CC2)cc1 [Flunarizine dihydrochloride] ?
A: 89.1

Q: For the molecule shown here, COC(=O)C1C(O)CCC2CN3CCc4c([nH]c5ccccc45)C3CC21 (stereo not given) [Corynanthine] , give the reported H1.0 immunofluorescence intensity.
A: 102

Q: Suppose we examine the molecule O=C1C(Cl)=C(N2C(=O)CCC2=O)C(=O)c2ccccc21 [MEK Inhibitor II] ; what H1.0 immunofluorescence intensity value has been reported?
A: 90.5

Q: Using the record for CC(=O)OCC1(O)CC23CCC4c5ccoc5C=CC4(C)C2CCC1C3 (stereo not given) [Kahweol Acetate] , report its H1.0 immunofluorescence intensity.
A: 105

* * *

# reported H1.0 immunofluorescence intensity; entries follow
- System: HCC1569
- assay-protocol: H1.0 immunofluorescence intensity relative to DMSO (% of DMSO); higher = stronger H1.0 induction, active = 140 or more
- conditions: concentration: 10 µM; 24 h
Form rule: numeric answer, no unit written next to it.

Here are 5 compounds together with their reported answers.
{"columns": ["compound", "H1.0 immunofluorescence intensity"],
 "data": [
  ["COc1cc(Br)c(CC2c3cc(OC)c(OC)cc3CCN2C)cc1OC (racemic)", 97.6],
  ["NC(=O)c1cccc(-c2cc(Nc3ccc(OC(F)(F)F)cc3)ncn2)c1", 124],
  ["COc1cc2nc(N(C)CCCNC(=O)C3CCCO3)nc(N)c2cc1OC (stereo not drawn)", 102],
  ["NC(=O)C1=CN(C2OC(COP(=O)([O-])OP(=O)([O-])OCC3OC(n4cnc5c(N)ncnc54)C(OP(=O)([O-])[O-])C3O)C(O)C2O)C=CC1.[Na+].[Na+].[Na+].[Na+] (stereo not drawn) [NADPH tetrasodium]", 99.1],
  ["CCOC(=O)[C@H](CCc1ccccc1)N[C@@H](C)C(=O)N1C(=O)N(C)C[C@H]1C(=O)O.Cl", 92.3]
]}

Q: Find the recorded H1.0 immunofluorescence intensity belonging to Cc1ccccc1C(OCCN(C)C)c1ccccc1.O=C(O)CC(O)(CC(=O)O)C(=O)O (stereo not drawn) [Orphenadrine citrate] and report it.
A: 96.1

Q: Tell me the measured H1.0 immunofluorescence intensity of CCN(CC)CCCC(C)Nc1c2ccc(Cl)cc2nc2ccc(OC)cc12.Cl.Cl (stereo not drawn) [Quinacrine dihydrochloride] , please.
A: 133

Q: What does the data say about its H1.0 immunofluorescence intensity? Entry: CC(Nc1nc(N2CCCC2)nc2ccccc12)c1ccccc1 (stereo not drawn) [N-(1-phenylethyl)-N-[2-(1-pyrrolidinyl)-4-quinazolinyl]amine]
A: 120
